# target or system: mouse TRPC5 (Mus musculus)
# Sequence (Q9QX29 whole entry): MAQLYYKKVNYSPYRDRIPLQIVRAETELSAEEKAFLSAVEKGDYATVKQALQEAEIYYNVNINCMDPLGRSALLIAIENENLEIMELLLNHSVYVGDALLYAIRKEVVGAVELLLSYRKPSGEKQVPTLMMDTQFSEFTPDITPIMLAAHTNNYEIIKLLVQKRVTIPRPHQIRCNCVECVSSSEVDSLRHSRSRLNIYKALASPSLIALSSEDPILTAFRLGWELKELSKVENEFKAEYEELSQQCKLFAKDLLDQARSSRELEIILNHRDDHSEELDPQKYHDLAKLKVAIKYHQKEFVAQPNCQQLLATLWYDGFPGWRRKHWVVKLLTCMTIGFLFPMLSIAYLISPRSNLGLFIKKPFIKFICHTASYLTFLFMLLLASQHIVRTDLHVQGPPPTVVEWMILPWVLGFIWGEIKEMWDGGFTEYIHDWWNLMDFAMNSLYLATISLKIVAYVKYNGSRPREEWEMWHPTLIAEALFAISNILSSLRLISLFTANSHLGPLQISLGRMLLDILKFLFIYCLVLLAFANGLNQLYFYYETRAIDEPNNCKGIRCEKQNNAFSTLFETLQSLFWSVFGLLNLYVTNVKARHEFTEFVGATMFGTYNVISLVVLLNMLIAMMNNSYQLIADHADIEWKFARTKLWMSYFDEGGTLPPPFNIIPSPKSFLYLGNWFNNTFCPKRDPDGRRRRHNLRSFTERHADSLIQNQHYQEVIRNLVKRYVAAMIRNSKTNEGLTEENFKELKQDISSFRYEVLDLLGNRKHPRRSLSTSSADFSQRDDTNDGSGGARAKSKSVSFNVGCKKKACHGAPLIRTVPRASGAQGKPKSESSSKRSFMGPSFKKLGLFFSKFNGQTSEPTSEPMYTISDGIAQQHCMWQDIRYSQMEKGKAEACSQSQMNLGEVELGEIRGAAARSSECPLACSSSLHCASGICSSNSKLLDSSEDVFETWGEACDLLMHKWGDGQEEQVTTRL
# assay remarks: FLIPR Ca2+ influx assay (Fluo-4) with 365/447 nm photoswitching, HEK293 stably expressing mouse TRPC5
# condition label: Z* = mostly-Z PSS under 365 nm LED; Fluo-4-loaded cells; read-out: Agonistic EC50 (365 nm) TRPC5
Measured EC50 by item
experimental readout: EC50 (nM)

>>> test_value("Cn1c(=O)n(CCCO)c(=O)c2c1nc(Oc1ccc(N=Nc3ccccc3)c(OC(F)(F)F)c1)n2Cc1ccc(Cl)cc1")
4
>>> test_value("Cn1c(=O)n(CCCO)c(=O)c2c1nc(Oc1ccc(/N=N\\c3ccccc3)c(Cl)c1)n2Cc1ccc(Cl)cc1")
6.4
>>> test_value("Cn1c(=O)n(CCCO)c(=O)c2c1nc(Oc1ccc(/N=N\\c3ccccc3)c(OC(F)(F)F)c1)n2Cc1ccc(Cl)cc1")
4
>>> test_value("Cn1c(=O)n(CCCO)c(=O)c2c1nc(Oc1ccc(N=Nc3ccccc3)c(Cl)c1)n2Cc1ccc(Cl)cc1")
6.4
